- Test system: Escherichia coli TOP10
- test.name: shrunken log2 fold change of peptide-encoding DNA abundance (4.5 h post-induction vs induction); higher = less antimicrobial activity (less host growth inhibition)
- experimental.conditions: time post-induction: 4.5 h; library: site-saturation at positions 5, 18, 19, 20
measured.metric: shrunken log2 fold change
The answer should be a number; do not append a unit.

// solved cases for shrunken log2 fold change follow
Input: Given RRIRMRPPRLPRPRPRPLMNPRP , respond with its shrunken log2 fold change.
Output: -0.263

Input: Given RRIRVRPPRLPRPRPRPTKRPRP , respond with its shrunken log2 fold change.
Output: 0.331

Input: Given RRIRARPPRLPRPRPRPYCQPRP , respond with its shrunken log2 fold change.
Output: -0.138

Input: Given RRIRTRPPRLPRPRPRPTGSPRP , respond with its shrunken log2 fold change.
Output: 0.0948

Input: Given RRIRYRPPRLPRPRPRPFISPRP , respond with its shrunken log2 fold change.
Output: -0.341

Input: Given RRIRSRPPRLPRPRPRPKEPPRP , respond with its shrunken log2 fold change.
Output: -0.0411

Input: Given RRIRVRPPRLPRPRPRPGFEPRP , respond with its shrunken log2 fold change.
Output: 0.554

Input: Given RRIRVRPPRLPRPRPRPYIHPRP , respond with its shrunken log2 fold change.
Output: -0.757

Input: Given RRIRQRPPRLPRPRPRPGQLPRP , respond with its shrunken log2 fold change.
Output: -0.0292

Input: Given RRIRVRPPRLPRPRPRPNITPRP , respond with its shrunken log2 fold change.
Output: -0.808

Further cases:
Input: Given RRIRSRPPRLPRPRPRPQDWPRP , respond with its shrunken log2 fold change.
Output: -0.0642

Input: Given RRIRNRPPRLPRPRPRPYQHPRP , respond with its shrunken log2 fold change.
Output: -0.549

Input: Given RRIRGRPPRLPRPRPRPHVTPRP , respond with its shrunken log2 fold change.
Output: 0.00976

Input: Given RRIRIRPPRLPRPRPRPSGKPRP , respond with its shrunken log2 fold change.
Output: -0.146

Input: Given RRIRTRPPRLPRPRPRPNLCPRP , respond with its shrunken log2 fold change.
Output: 0.108

* * *

shrunken log2 fold change: recorded values
- System: Escherichia coli TOP10;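 also: peptides expressed intracellularly from a pBAD plasmid library in pooled LB shake-flask culture, induced with 0.3% L-arabinose, DNA abundance read by NGS, three biological replicates, DESeq2 with apeglm shrinkage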
- test.name: shrunken log2 fold change of peptide-encoding DNA abundance (4.5 h post-induction vs induction); higher = less antimicrobial activity (less host growth inhibition)
- experimental.conditions: time post-induction: 4.5 h; library: site-saturation at positions 5, 18, 19, 20

Input: Given RRIRWRPPRLPRPRPRPYATPRP , respond with its shrunken log2 fold change.
Output: 0.289

Input: Given RRIRERPPRLPRPRPRPSHPPRP , respond with its shrunken log2 fold change.
Output: -0.481

Input: Given RRIRQRPPRLPRPRPRPPPGPRP , respond with its shrunken log2 fold change.
Output: 0.751

Input: Given RRIRIRPPRLPRPRPRPKVNPRP , respond with its shrunken log2 fold change.
Output: -0.647

Input: Given RRIRARPPRLPRPRPRPVVSPRP , respond with its shrunken log2 fold change.
Output: 0.188

Input: Given RRIRSRPPRLPRPRPRPWIRPRP , respond with its shrunken log2 fold change.
Output: -0.207

Input: Given RRIRWRPPRLPRPRPRPIKFPRP , respond with its shrunken log2 fold change.
Output: -0.285

Input: Given RRIRARPPRLPRPRPRPMPFPRP , respond with its shrunken log2 fold change.
Output: 0.263

Input: Given RRIRHRPPRLPRPRPRPTMIPRP , respond with its shrunken log2 fold change.
Output: -0.112

Input: Given RRIRARPPRLPRPRPRPMQKPRP , respond with its shrunken log2 fold change.
Output: 0.222

Further cases:
Input: Given RRIRKRPPRLPRPRPRPYPCPRP , respond with its shrunken log2 fold change.
Output: -0.034
